Assay: Biodistribution in Daudi xenograft bearing mice
Format: in vivo, mouse
Conditions: female, CB-17 SCID, mouse, adrenals, iv, with AMD3100, 50 µg per animal, coinjected (CXCR4 competition), total radioactivity, 1h p.i., coinjection of 50 µg AMD3100/animal; means ± SD, n=3; read-out: Biodistribution adrenals, competition with AMD3100
Where a SMILES comes first, the peptide text is derived from it. Side-chain parts run from the residue outwards. [ ]: non-standard residue; d: D form. The star is where a group is joined. DOTA = O=C(O)CN1CCN(CC(=O)O)CCN(CC(=O)*)CCN(CC(=O)O)CC1; 2Nal = N[C@@H](Cc1ccc2ccccc2c1)C(=O)O; dNMeOrn = CN[C@H](CCCN)C(=O)O; 4Abz = Nc1ccc(C(=O)O)cc1
endpoint_name: tissue uptake at 1 h (%ID/g)
API: value field is a number in %ID/g; no unit string.

Prompt: Could you share which tissue uptake at 1 h value was measured for C[C@@H](NC(=O)[C@@H](CCCNC(=N)N)NC(=O)CN1CCN(CC(=O)O)CCN(CC(=O)O)CCN(CC(=O)O)CC1)C(=O)Nc1ccc(C(=O)NCCC[C@@H]2C(=O)N[C@@H](CCCNC(=N)N)C(=O)N[C@@H](Cc3ccc4ccccc4c3)C(=O)NCC(=O)N[C@H](Cc3ccc(O)cc3)C(=O)N2C)cc1 [[^68Ga]DOTA-r-a-ABA-CPCR4, metal not drawn] (cyclo([2Nal]G[dY][dNMeOrn]([4Abz-dA-dR-DOTA])R)) ?
Response: 1.02

====

Biological target: human CXCR4 (hCXCR4) (Homo sapiens)
Construct: hCXCR4-expressing Jurkat human T-cell leukemia cells; endogenous in cells; host or cells: Jurkat human T-cell leukemia cells (whole cells)
Sequence (P61073 whole entry): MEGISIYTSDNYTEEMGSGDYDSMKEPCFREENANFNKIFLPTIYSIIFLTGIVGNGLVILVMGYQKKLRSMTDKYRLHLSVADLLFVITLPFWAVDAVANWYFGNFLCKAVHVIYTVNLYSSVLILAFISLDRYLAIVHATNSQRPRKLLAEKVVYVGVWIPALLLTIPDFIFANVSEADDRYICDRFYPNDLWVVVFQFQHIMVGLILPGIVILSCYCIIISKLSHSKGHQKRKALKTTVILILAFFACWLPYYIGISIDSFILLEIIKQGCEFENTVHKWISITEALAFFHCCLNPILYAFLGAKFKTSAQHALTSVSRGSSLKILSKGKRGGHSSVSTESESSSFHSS
Test: Competition binding to hCXCR4, Jurkat cells, [125I]FC-131 as radioligand
Details: natY-complex, Jurkat cells 400.000 cells/sample, means ± SD of min. three separate experiments, read-out: ^natY-complex IC50 to hCXCR4
endpoint_name: IC50
Include the unit right after the number.

# substance, endpoint_name, result
data = [
    ("DOTAGA-G-ABA-iodoCPCR4 (head to tail) [entry 7]", "IC50", "43 nM"),
]

Prompt: Fill in the recorded IC50 for this substance, with human CXCR4 (hCXCR4) (Homo sapiens) as test system: DOTAGA-ABA-iodoCPCR4 (head to tail) [entry 4]
Response: 83 nM

====

Experiment: Biodistribution in Daudi xenograft bearing mice
Format: in vivo, mouse
Settings: female, CB-17 SCID, mouse, pancreas, iv, total radioactivity, 48h p.i., i.v.; means ± SD, n=4-5; read-out: Biodistribution pancreas
Where a SMILES comes first, the peptide text is derived from it. Side-chain parts run from the residue outwards. [ ]: non-standard residue; d: D form. The star is where a group is joined. DOTA = O=C(O)CN1CCN(CC(=O)O)CCN(CC(=O)*)CCN(CC(=O)O)CC1; dTyr(3-I) = N[C@H](Cc1ccc(O)c(I)c1)C(=O)O; 2Nal = N[C@@H](Cc1ccc2ccccc2c1)C(=O)O; dNMeOrn = CN[C@H](CCCN)C(=O)O; 4Abz = Nc1ccc(C(=O)O)cc1
Entries and their measured tissue uptake at 48 h follow.
API: value field is a number in %ID/g; no unit string.

# compound, unit_string, tissue uptake at 48 h
measured = [
    ("C[C@@H](NC(=O)[C@@H](CCCNC(=N)N)NC(=O)CN1CCN(CC(=O)O)CCN(CC(=O)O)CCN(CC(=O)O)CC1)C(=O)Nc1ccc(C(=O)NCCC[C@@H]2C(=O)N[C@@H](CCCNC(=N)N)C(=O)N[C@@H](Cc3ccc4ccccc4c3)C(=O)NCC(=O)N[C@H](Cc3ccc(O)cc3)C(=O)N2C)cc1 [[^177Lu]DOTA-r-a-ABA-CPCR4, metal not drawn] (cyclo([2Nal]G[dY][dNMeOrn]([4Abz-dA-dR-DOTA])R))", "%ID/g", 0.07),
]

Kindly consider the entry below.
Prompt: Could you share which tissue uptake at 48 h value was measured for C[C@@H](NC(=O)[C@@H](CCCNC(=N)N)NC(=O)CN1CCN(CC(=O)O)CCN(CC(=O)O)CCN(CC(=O)O)CC1)C(=O)Nc1ccc(C(=O)NCCC[C@@H]2C(=O)N[C@@H](CCCNC(=N)N)C(=O)N[C@@H](Cc3ccc4ccccc4c3)C(=O)NCC(=O)N[C@H](Cc3ccc(O)c(I)c3)C(=O)N2C)cc1 [[^177Lu]DOTA-r-a-ABA-iodoCPCR4, metal not drawn] (cyclo([2Nal]G[dTyr(3-I)][dNMeOrn]([4Abz-dA-dR-DOTA])R)) ?
Response: 0.09

====

Test: Biodistribution in Daudi xenograft bearing mice
Format: in vivo, mouse
Conditions: female, CB-17 SCID, mouse, kidney, iv, with AMD3100, 50 µg per animal, coinjected (CXCR4 competition), total radioactivity, 1h p.i., coinjection of 50 µg AMD3100/animal; means ± SD, n=3; read-out: Biodistribution kidney, competition with AMD3100
Where a SMILES comes first, the peptide text is derived from it. Side-chain parts run from the residue outwards. [ ]: non-standard residue; d: D form. The star is where a group is joined. DOTA = O=C(O)CN1CCN(CC(=O)O)CCN(CC(=O)*)CCN(CC(=O)O)CC1; 2Nal = N[C@@H](Cc1ccc2ccccc2c1)C(=O)O; dNMeOrn = CN[C@H](CCCN)C(=O)O; 4Abz = Nc1ccc(C(=O)O)cc1
endpoint_name: tissue uptake at 1 h (%ID/g)
API: value field is a number in %ID/g; no unit string.

Prompt: Could you share which tissue uptake at 1 h value was measured for C[C@@H](NC(=O)[C@@H](CCCNC(=N)N)NC(=O)CN1CCN(CC(=O)O)CCN(CC(=O)O)CCN(CC(=O)O)CC1)C(=O)Nc1ccc(C(=O)NCCC[C@@H]2C(=O)N[C@@H](CCCNC(=N)N)C(=O)N[C@@H](Cc3ccc4ccccc4c3)C(=O)NCC(=O)N[C@H](Cc3ccc(O)cc3)C(=O)N2C)cc1 [[^68Ga]DOTA-r-a-ABA-CPCR4, metal not drawn] (cyclo([2Nal]G[dY][dNMeOrn]([4Abz-dA-dR-DOTA])R)) ?
Response: 7.16

====

Experiment: Biodistribution in Daudi xenograft bearing mice
Type: in vivo, mouse
Settings: female, CB-17 SCID, mouse, tumor (Daudi xenograft), iv, total radioactivity, 6h p.i., i.v.; means ± SD, n=4-5; read-out: Biodistribution tumor (Daudi xenograft)
Where a SMILES comes first, the peptide text is derived from it. Side-chain parts run from the residue outwards. [ ]: non-standard residue; d: D form. The star is where a group is joined. DOTA = O=C(O)CN1CCN(CC(=O)O)CCN(CC(=O)*)CCN(CC(=O)O)CC1; dTyr(3-I) = N[C@H](Cc1ccc(O)c(I)c1)C(=O)O; 2Nal = N[C@@H](Cc1ccc2ccccc2c1)C(=O)O; dNMeOrn = CN[C@H](CCCN)C(=O)O; 4Abz = Nc1ccc(C(=O)O)cc1
Entries and their measured tissue uptake at 6 h follow.
API: value field is a number in %ID/g; no unit string.

# compound, endpoint_name, unit_string, numeric_result
data = [
    ("C[C@@H](NC(=O)[C@@H](CCCNC(=N)N)NC(=O)CN1CCN(CC(=O)O)CCN(CC(=O)O)CCN(CC(=O)O)CC1)C(=O)Nc1ccc(C(=O)NCCC[C@@H]2C(=O)N[C@@H](CCCNC(=N)N)C(=O)N[C@@H](Cc3ccc4ccccc4c3)C(=O)NCC(=O)N[C@H](Cc3ccc(O)c(I)c3)C(=O)N2C)cc1 [[^177Lu]DOTA-r-a-ABA-iodoCPCR4, metal not drawn] (cyclo([2Nal]G[dTyr(3-I)][dNMeOrn]([4Abz-dA-dR-DOTA])R))", "tissue uptake at 6 h", "%ID/g", 12.5),
]

Kindly consider the entry below.
Prompt: Could you share which tissue uptake at 6 h value was measured for C[C@@H](NC(=O)[C@@H](CCCNC(=N)N)NC(=O)CN1CCN(CC(=O)O)CCN(CC(=O)O)CCN(CC(=O)O)CC1)C(=O)Nc1ccc(C(=O)NCCC[C@@H]2C(=O)N[C@@H](CCCNC(=N)N)C(=O)N[C@@H](Cc3ccc4ccccc4c3)C(=O)NCC(=O)N[C@H](Cc3ccc(O)cc3)C(=O)N2C)cc1 [[^177Lu]DOTA-r-a-ABA-CPCR4, metal not drawn] (cyclo([2Nal]G[dY][dNMeOrn]([4Abz-dA-dR-DOTA])R)) ?
Response: 13.6

====

Experiment: Biodistribution in Daudi xenograft bearing mice
Type: in vivo, mouse
Conditions: female, CB-17 SCID, mouse, liver, iv, total radioactivity, 48h p.i., i.v.; means ± SD, n=4-5; read-out: Biodistribution liver
Where a SMILES comes first, the peptide text is derived from it. Side-chain parts run from the residue outwards. [ ]: non-standard residue; d: D form. The star is where a group is joined. DOTA = O=C(O)CN1CCN(CC(=O)O)CCN(CC(=O)*)CCN(CC(=O)O)CC1; dTyr(3-I) = N[C@H](Cc1ccc(O)c(I)c1)C(=O)O; 2Nal = N[C@@H](Cc1ccc2ccccc2c1)C(=O)O; dNMeOrn = CN[C@H](CCCN)C(=O)O; 4Abz = Nc1ccc(C(=O)O)cc1
endpoint_name: tissue uptake at 48 h
Include the unit right after the number.

# molecule, tissue uptake at 48 h
measured = [
    ("C[C@@H](NC(=O)[C@@H](CCCNC(=N)N)NC(=O)CN1CCN(CC(=O)O)CCN(CC(=O)O)CCN(CC(=O)O)CC1)C(=O)Nc1ccc(C(=O)NCCC[C@@H]2C(=O)N[C@@H](CCCNC(=N)N)C(=O)N[C@@H](Cc3ccc4ccccc4c3)C(=O)NCC(=O)N[C@H](Cc3ccc(O)cc3)C(=O)N2C)cc1 [[^177Lu]DOTA-r-a-ABA-CPCR4, metal not drawn] (cyclo([2Nal]G[dY][dNMeOrn]([4Abz-dA-dR-DOTA])R))", "8.99 %ID/g"),
]

Kindly consider the entry below.
Prompt: Could you share which tissue uptake at 48 h value was measured for C[C@@H](NC(=O)[C@@H](CCCNC(=N)N)NC(=O)CN1CCN(CC(=O)O)CCN(CC(=O)O)CCN(CC(=O)O)CC1)C(=O)Nc1ccc(C(=O)NCCC[C@@H]2C(=O)N[C@@H](CCCNC(=N)N)C(=O)N[C@@H](Cc3ccc4ccccc4c3)C(=O)NCC(=O)N[C@H](Cc3ccc(O)c(I)c3)C(=O)N2C)cc1 [[^177Lu]DOTA-r-a-ABA-iodoCPCR4, metal not drawn] (cyclo([2Nal]G[dTyr(3-I)][dNMeOrn]([4Abz-dA-dR-DOTA])R)) ?
Response: 14.6 %ID/g

Just for reference, paper PMC7381729 is where these values come from.
